meta.source: a protein production outcome set (Wang et al. 2014)

- Protocol summary: label from the status in PepcDB records
Observed property: protein production

| Seq text | protein production |
| --- | --- |
| MTGAVETESMKTVRIREKIKKFLGDRPRNTAEILEHINSTMRHGTTSQQLGNVLSKDKDIVKVGYIKRSGILSGGYDICEWATRNWVAEHCPEWTEGQPIILNEEGDFTLGPLPE | not failed |
| QWDITLIGHEDDLSQLSHEKLSKLAACIEYSPYPMVEIDYFGNLTYLNTATKEKFPSIQKDSMAHPLLKDIIPQREDTPIYYLRTREVQIGDKFYEQHIHYPAESQFIRSYIFDITERKVIEQSIHYQAFYDPLTDLPNRFLFKQELGKVLSNVQNQSSVLGLVLLGFRELQSLNDLLG | failed |
| MDLKILSLATDKTTDKLQEFLQTLKDDDLASLLQNQAVKGRAVGTLLRAVLKGSPCSEEDGALRRYKIYSCCIQLVESGDLQQDVASEIIGLLMLEVHHFPGPLLVDLASDFVGAVREDRLVNGKSLELLPIILTALATKKEVLACGKGDLNGEEYKRQLIDTLCSVRWPQRYMIQLTSVFKDVCLTPEEMNLVVAKVLTMFSKLNLQEIPPLVYQLLVLSSKGSRRSVLDGIIAFFRELDKQHREEQSSDELSELITAPADELYHVEGTVILHIVFAIKLDCELGRELLKHLKVALRCF | failed |
| MGSSHHHHHHSSGRENLYFQGSQESIQNKISQCKFSVCPERLQCPLEAIQCPITLEQPEKGIFVKNSDGSDVCTLFDAAAFSRLVGEGLPHPLTREPITASIIVKHEECIYDDTRGNFIIKGN | not failed |

Now consider the entry below.
Exam item: Name the recorded protein production for "ASIVGSWVEPVPGLEGQVQGIKMEEGGVASSVNMATLVYESWKQEGTKLILTGKSIGNGQTIEFVDTMDIKRLTADSLVLDNQGMEIRYAKQK" .
Marked response: not failed

###

- Protocol summary: label from the status in PepcDB records
Observed property: protein production

| Seq text | Reported result |
| --- | --- |
| MSLSASLPLAIERRPAAWTFTLSRPEKRNALSAELVEALIDGVDAAHREQVPLLVFAGAGRNFSAGFDFTDYETQSEGDLLLRMVRIEMLLQRVAGSPSLTLALAHGRNFGAGVDLFAACKWRYCTPEAGFRMPGLKFGLVLGTRRFRDIVGADQALSILGSARAFDADEARRIGFVRDCAAQAQWPALIDAAAEAATALDPATRATLHRVLRDDHDDADLAALARSAAQPGFKARIRDYLAQPAAEGHHHHHH | not failed |
| MSLRVYVTGNITVDETWSIPDIPKKGASIHGVKVSQDIGGKGANQAIILSRCGIETRLIAATGNDSNGAWIRQQIKNEPLMLLPDGHFNQHSDTSIILNSADGDNAIITTTAAADTFSLDEMIPHMADAVAGDILLQQGNFSLDKTRALFQYARSRGMTTVFNPSPVNPDFCHLWPLIDIAVVNESEAELLQPYGVKTLVITQGAAGAWLVQEGQRQFCPAVPAEALDTTGAGDTFLAVMLASALLRGVAPDALALAHASRAAAITVSRRGTLSAFPGSRELAALLTTDGAEGHHHHHH | not failed |

###

- Protocol summary: label from the status in PepcDB records

| Seq text | protein production |
| --- | --- |
| ATSYMTCSAYQKVQDSEISFPAGVEVQVLEKQESGWWYVRFGELEGWAPSHYLVLDENEQPDPSGKE | not failed |
| MHMKTVRQERLKSIVRILERSKEPVSGAQLAEELSVSRQVIVQDIAYLRSLGYNIVATPRGYVLAGGKSGVSRLVAVKHAPEEIKEELLCVVRNGGRIVDVIVEHPVYGEIRGIIDVSSEEEVLKFVNLMEMAKTEPLLTLSGGVHLHTIEAPDEETMERIMRELKKKGFLIEEG | not failed |
